Read-out: CD38, CD38 (gene 952)
Experiment: BSK_SAg_CD38: BioMAP Diversity Plus: SAg Assay for CD38 Biomarker Activity (AID 2283087)
Settings: primary human HUVEC with PBMC; actives raise or lower the signal
Procedure: BSK_SAg is a cell-based, multiplexed-readout assay that uses umbilical vein endothelium and peripheral blood mononuclear cells, a human vascular primary cell co-culture, with measurements taken at 24 hours after chemical dosing in a 96-well plate.BSK_SAg_CD38 is one of 10 assay component(s) measured or calculated from the BSK_SAg assay. […] This assay endpoint, BSK_SAg_CD38, was analyzed with bidirectional fitting relative to DMSO as the negative control and baseline of activity. […]
Activity calls are given as the source filed them. Rule for the calls: active = hit-call score of the fitted dose curve at least 0.9, where 1 is the maximum; inactive = score below 0.9.
Outcomes: active, inactive

In [3]: df
Out[3]:
                                   compound  class_label
0                         CCOC(=O)CC(=O)CCl       active
1               CCOP(=S)(OCC)OP(=S)(OCC)OCC       active
2  O=c1oc2ccccc2c(O)c1C(CC(O)c1ccc(-c2ccc(Br)cc2)cc1)c1ccccc1 (stereo unspecified)       active
3  CC(C)(COCC1CO1)COCC1CO1 (stereo unspecified)     inactive
4                O=C(O)COc1cc(Cl)c(Cl)cc1Cl     inactive
5                                 NC(=O)CCl     inactive

* * *

assay: ATG_TCF_b_cat_CIS: Attagene CIS-FACTORIAL HepG2 Assay for human T-Cell-Factor with beta-catenin (TCF/b-cat) (AID 2282965); conditions: HepG2 TCF/beta-catenin cis-reporter transcription, actives raise or lower the signal
Activity calls are given as the source filed them. Rule for the calls: active = hit-call score of the fitted dose curve at least 0.9, where 1 is the maximum; inactive = score below 0.9.
Possible outcomes: active, inactive

>>> df
                                    molecule  class_label
 0  CCCSP(=S)(OCC)Oc1ccc(SC)cc1 (stereo not given)     inactive
 1                              ClCCN1CCOCC1     inactive
 2                       O=C(CBr)c1ccc(O)cc1     inactive
 3                            Cc1cc(Cl)ccc1O     inactive
 4  CCOCn1c(-c2ccc(Cl)cc2)c(C#N)c(Br)c1C(F)(F)F       active
 5                             ClCc1ccccc1Cl     inactive
 6  CC(C)=CC1C(C(=O)OCc2cccc(Oc3ccccc3)c2)C1(C)C (stereo not given)     inactive
 7  C#CCOC(=O)/C=C(C)/C=C/CC(C)CCCC(C)C (stereo not given)     inactive
 8                                     COCCl     inactive
 9                      O=C(O)COc1ccc(Cl)cc1     inactive
10                          CC[N+](CC)(CC)CC     inactive
11  O=C1c2ccccc2C(=O)C1C(=O)C(c1ccccc1)c1ccc(Cl)cc1 (stereo not given)       active
12                  Cc1ccc2nc3sc(=O)sc3nc2c1     inactive
13                         CCOc1cc(C=O)ccc1O     inactive
14  C[C@H]1C(=O)O[C@@H]2CCN3CC=C(COC(=O)[C@](C)(O)[C@]1(C)O)[C@H]23     inactive
15       CCCCC(CC)C(=O)Cl (stereo not given)     inactive
16     CCCCC(CC)COC(=O)Cl (stereo not given)     inactive
17                              O=NN1CCCCCC1     inactive
18  CC(C)(COCC1CO1)COCC1CO1 (stereo not given)     inactive
19  Nc1c(Oc2ccccc2)cc(O)c2c1C(=O)c1ccccc1C2=O     inactive
